Target: BRD4-BD1 (Homo sapiens)
Experiment: AlphaScreen competition assay with biotinylated JQ1
Format: binding
Set-up: the bromodomain 1 (BD1) of BRD4; made in house; host or cells: bacteria (pET15b or pET28b vector)
Conditions: AlphaScreen, biotinylated JQ1 10 nM, His-bromodomain 10 nM; read-out: BRD4-BD1 IC50
Consider the cut-off 100 nM. If the recorded IC50 is strictly smaller, the label is Yes; if not, the label is No.

* Cc1cc(=O)[nH]c2ccc(CC(=O)N3CCN(CCNC(=O)c4ccccn4)CC3)cc12 | No

# ---- query compound ----
Here's an entry: Cc1cc(=O)[nH]c2ccc(CC(=O)N3CCC(CCNC(=O)c4ccc5ccccc5n4)CC3)cc12 . Is its IC50 below 100 nM?
No
